experiment: chemical genetic growth profiling, strain panel (AID 1159580);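 further: tested at 20 µM; growth read once vehicle control cultures reached saturation at 30 °C; 1 = growth at the plate median or of vehicle wells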; conditions: S. cerevisiae deletion strains, growth OD, locus YMR231W, strain pep5, stronger effect = lower value
Among all 5,500 compounds or so, about 2,000 (36%) were called active. About 18% were inconclusive and are not listed. This is one part of the list.
Measured endpoint: normalized growth
Give bare numbers.

For each listed entry, give its normalized growth.
1. CN1CCN(C(=O)OC2c3nccnc3C(=O)N2c2ccc(Cl)cn2)CC1 (configuration not stated)
2. NC(Cn1ccc(=O)c(O)c1)C(=O)O (configuration not stated)
3. CC(C)c1ccc2c(c1)CCC1C(C)(C(N)=O)CCCC21C (configuration not stated)
4. CC(Cc1cccc(C(F)(F)F)c1)NCCOC(=O)c1ccccc1 (configuration not stated)
5. N=C(N)N

1: 0.99; 2: 1.02; 3: 0.98; 4: 1; 5: 0.994

For each listed entry, give its normalized growth.
1. CC(C)=CCCC(C)[C@@H]1CC[C@]2(C)C3=C(CC[C@@]12C)C1(C)CC[C@H](O)C(C)(C)C1CC3 (some centres not stated)
2. CC(C)c1ccc2c(c1)CCC1[C@](C)(CN)CCC[C@]21C (some centres not stated)

1.04
1.03

====

Field: normalized growth. Provide a value for each of the compounds that follow.
assay: chemical genetic growth profiling, strain panel (AID 1159580); details: S. cerevisiae deletion strains, growth OD, locus YPR111W, strain DBF20, stronger effect = lower value
About 2,000 (36%) of roughly 5,500 compounds were called active. Roughly 18% stayed inconclusive and do not appear here. The list shows a part of the results.
Give bare numbers.

# count of solved cases: 4
- Compound: "Clc1ccc(SCc2ccsc2-c2ncns2)cc1"
  Meas value: 0.971
- Compound: "O=C(NOC(=O)c1ccccc1)c1ccccc1"
  Meas value: 0.09
- Compound: "CC(C)(C)c1cc(C(=O)Nc2ccc3c(c2)OCO3)n(Cc2ccc(F)cc2)n1"
  Meas value: 0.936
- Compound: "N#CSCC(=O)c1ccccc1"
  Meas value: 0.505

For each listed entry, give its normalized growth.
1. COC(=O)C1=C(Nc2ccccc2NS(=O)(=O)c2ccc(C(F)(F)F)cc2Cl)CSC1
2. C#CCSC1=NNC(c2ccccn2)S1 (stereo unspecified)
3. Cc1ccc(-c2csc(-c3ccncc3)n2)cc1
4. O=[N+]([O-])c1cccc(C2CC(c3ccccc3)=Nc3ccccc3S2)c1 (stereo unspecified)
5. NC(=S)N/N=C1/CCCc2ccccc21
6. N/C(Cc1cccc2ccccc12)=N/OC(=O)c1ccc(Cl)cc1
7. CC(=O)c1ccc(Cl)c(N=Cc2cc(Cl)cc(Cl)c2O)c1
8. O=S(=O)(Nc1ccccc1Oc1ccccc1)c1ccc(-c2ccno2)s1

1. 0.979
2. 0.928
3. 0.902
4. 0.968
5. 0.874
6. 0.916
7. 0.931
8. 0.929

====

experiment: chemical genetic growth profiling, strain panel (AID 1159580);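 further: tested at 20 µM; growth read once vehicle control cultures reached saturation at 30 °C; 1 = growth at the plate median or of vehicle wells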; details: S. cerevisiae deletion strains, growth OD, locus YKR091W, strain srl3, stronger effect = lower value
The whole screen tested about 5,500 compounds, of which about 2,000 (36%) were called active. Inconclusive results (about 18%) are left out. This is one part of the list.
Field: normalized growth. Provide a value for each of the compounds that follow.
One number for each entry.

# count of solved cases: 10
- Compound: "O=C1NC(O)=NC1(c1ccccc1)c1ccccc1"
  normalized growth: 1.02
- Compound: "CCOC(=O)NNc1nncc2ccccc12"
  normalized growth: 1
- Compound: "CN(C)CCCN1c2ccccc2CCc2ccc(Cl)cc21"
  normalized growth: 1
- Compound: "CC(C)=CCc1c2c(c3occ(-c4ccc(O)c(O)c4)c(=O)c3c1O)C=CC(C)(C)O2"
  normalized growth: 0.997
- Compound: "CC(=O)OCC(=O)[C@@]1(O)[C@H](C)CC2C3CCC4=CC(=O)C=C[C@]4(C)[C@@]3(F)[C@@H](O)C[C@@]21C (stereo partly drawn)"
  normalized growth: 0.97
- Compound: "CC1(C)CC2C1CC[C@]1(CBr)CCC3C(CC(=O)O)C(=O)O[C@@]32C1 (stereo partly drawn)"
  normalized growth: 1.01
- Compound: "CC(C)C[C@@H](CN)CC(=O)O"
  normalized growth: 1.01
- Compound: "CC(C)NCC(O)COc1ccc(COCCOC(C)C)cc1 (stereo not drawn)"
  normalized growth: 1
- Compound: "CNNC"
  normalized growth: 1.02
- Compound: "CCN(CC)CCOCCOC(=O)C1(c2ccccc2)CCCC1"
  normalized growth: 0.992

For each listed entry, give its normalized growth.
1. N=C(N)N
2. CN(C)C(=O)Oc1cccc([N+](C)(C)C)c1
3. N[C@@H](CCC(=O)N[C@@H](CS)C(=O)NCC(=O)O)C(=O)O
4. C=C1C[C@]23C[C@@]1(O)CC[C@H]2[C@@]12C=C[C@H](O)[C@@](C)(C(=O)O1)[C@H]2[C@@H]3C(=O)O
5. Nc1ccc(S(=O)(=O)NC(=O)c2ccccc2)cc1
6. CNCCCC12CCC(c3ccccc31)c1ccccc12
7. CCCN(CCC)S(=O)(=O)c1ccc(C(=O)O)cc1

1. 1
2. 0.995
3. 0.985
4. 1.03
5. 0.978
6. 0.973
7. 0.993

For each listed entry, give its normalized growth.
1. COc1ccc2cc(CCC(C)=O)ccc2c1
2. CC(C)=CCc1c2c(c3occ(-c4ccc(O)cc4)c(=O)c3c1O)C=CC(C)(C)O2
3. CC1(C)CC2C1CC[C@]1(C)CCC3C(C(=O)O)CC(=O)O[C@@]32C1 (stereo partly drawn)

[0.992, 0.98, 1.04]

For each listed entry, give its normalized growth.
1. CN(C)CCCN1c2ccccc2Sc2ccccc21
2. COc1ccc([C@@H]2CC(=O)c3c(O)cc(O[C@@H]4O[C@H](CO[C@H]5O[C@@H](C)[C@H](O)[C@@H](O)[C@H]5O)[C@@H](O)[C@H](O)[C@H]4O)cc3O2)cc1O
3. CC(C)c1ccc2c(c1)CCC1[C@](C)(CN)CCC[C@]21C (stereo partly drawn)

[0.984, 0.981, 1.01]

====

Field: normalized growth. Provide a value for each of the molecules that follow.
assay: chemical genetic growth profiling, strain panel (AID 1159580);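 further: tested at 20 µM; growth read once vehicle control cultures reached saturation at 30 °C; 1 = growth at the plate median or of vehicle wells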; settings: S. cerevisiae deletion strains, growth OD, locus YNL067W, strain RPL9B, stronger effect = lower value
Among all 5,500 compounds or so, about 2,000 (36%) were called active. Roughly 18% stayed inconclusive and do not appear here. This is one part of the list.
One number for each entry.

- Molecule: "C=C(C)C1(O)OC(=O)C=C1OC (configuration not stated)"
  Measured endpoint: "normalized growth"
  Meas value: 1.03
- Molecule: "CC(C)CCCC(C)[C@H]1CCC2C3C(=O)C=C4C[C@@H](O)CC[C@]4(C)C3CC[C@@]21C (some centres not stated)"
  Measured endpoint: "normalized growth"
  Meas value: 1.02
- Molecule: "CC12CCC(=O)C=C1CCC1C2[C@@H](O)CC2(C)C1CC[C@]2(O)C(=O)COP(=O)(O)O (some centres not stated)"
  Measured endpoint: "normalized growth"
  Meas value: 1.02
- Molecule: "COc1cc(C/C=C/c2ccccc2)c(OC)cc1O"
  Measured endpoint: "normalized growth"
  Meas value: 0.966
- Molecule: "CN(C)CCCN1c2ccccc2Sc2ccc(C(F)(F)F)cc21"
  Measured endpoint: "normalized growth"
  Meas value: 1.01
- Molecule: "CN(C)CCCN1c2ccccc2Sc2ccc(Cl)cc21"
  Measured endpoint: "normalized growth"
  Meas value: 0.993
- Molecule: "CN(C)CCCN1c2ccccc2Sc2ccccc21"
  Measured endpoint: "normalized growth"
  Meas value: 0.988
- Molecule: "CC(N=C(NC#N)Nc1ccncc1)C(C)(C)C (configuration not stated)"
  Measured endpoint: "normalized growth"
  Meas value: 1.04

For each listed entry, give its normalized growth.
1. NS(=O)(=O)c1cc2c(cc1Cl)NC(CSCc1ccccc1)=NS2(=O)=O
2. Nc1ccc(C(=O)O)cc1

[0.959, 1]

For each listed entry, give its normalized growth.
1. COc1ccc(C2Sc3ccccc3N(CCN(C)C)C(=O)C2OC(C)=O)cc1 (configuration not stated)
2. CN(C)CCCN1c2ccccc2CCc2ccccc21

1: 1.02; 2: 1

====

assay: chemical genetic growth profiling, strain panel (AID 1159580);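 further: tested at 20 µM; growth read once vehicle control cultures reached saturation at 30 °C; 1 = growth at the plate median or of vehicle wells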; conditions: S. cerevisiae deletion strains, growth OD, locus YNL183C, strain NPR1
The campaign covered roughly 5,500 compounds. About 2,000 (36%) were called active. Another 18% or so got no clear call; they are omitted. No stated cut-off is given here; in the data, active means normalized growth mostly below about 0.91 (no sharp cut-off); inconclusive means no clear call, values can overlap the other calls; inactive means mostly above about 0.92. The list shows a part of the results.
Hi there, use one of these labels in your reply, thanks! True = active, False = inactive

Consider the worked cases shown below.
- Compound: "O=C(CSC1=NNC(c2ccccn2)S1)Nc1ccccc1 (stereo not given)"
  Group: "False"
- Compound: "CC[N+](C)(C)c1cccc(O)c1"
  Group: "False"
- Compound: "COc1ccc([C@@H]2CC(=O)c3c(O)cc(O[C@@H]4O[C@H](CO[C@H]5O[C@@H](C)[C@H](O)[C@@H](O)[C@H]5O)[C@@H](O)[C@H](O)[C@H]4O)cc3O2)cc1O"
  Group: "False"
- Compound: "CN(C)[C@@H]1C(=O)C(C(N)=O)=C(O)[C@@]2(O)C(=O)C3=C(O)c4c(O)ccc(Cl)c4[C@@H](O)[C@H]3C[C@@H]12"
  Group: "False"
- Compound: "COc1cc(C(C)=O)cc(OC)c1O"
  Group: "False"

Name the outcome recorded for C/C=C\C1=C(C(=O)O)N2C(=O)C(NC(=O)C(N)c3ccc(O)cc3)C2SC1 (stereo not given) in the assay.
False

Name the outcome recorded for `N/C(Cc1cccc2ccccc12)=N/OC(=O)c1ccc(Cl)cc1` in the assay.
False

Name the outcome recorded for `Clc1ccc(CN2CCN(c3cccc4[nH]ccc34)CC2)cc1Cl` in the assay.
False

Name the outcome recorded for `Brc1ccc(-c2csc(-c3ccncc3)n2)cc1` in the assay.
True

Name the outcome recorded for `OC[C@H]1O[C@@](CO)(O[C@@H]2O[C@H](CO)[C@@H](O)[C@H](O)[C@H]2O)[C@@H](O[C@@H]2O[C@H](CO)[C@@H](O)[C@H](O)[C@H]2O)[C@@H]1O` in the assay.
False

Name the outcome recorded for `Nc1ccc(C(=O)O)cc1` in the assay.
False
